molecular target: UniProtKB P42336; assay: Inhibition of PI3Kα efficacy assay (ADP-Glo kinase assay); assay type: biochemical; settings: Table 4; read-out: PI3Kα inhibitory activity (IC50)
Sequence (P42336 whole entry, one chain of several): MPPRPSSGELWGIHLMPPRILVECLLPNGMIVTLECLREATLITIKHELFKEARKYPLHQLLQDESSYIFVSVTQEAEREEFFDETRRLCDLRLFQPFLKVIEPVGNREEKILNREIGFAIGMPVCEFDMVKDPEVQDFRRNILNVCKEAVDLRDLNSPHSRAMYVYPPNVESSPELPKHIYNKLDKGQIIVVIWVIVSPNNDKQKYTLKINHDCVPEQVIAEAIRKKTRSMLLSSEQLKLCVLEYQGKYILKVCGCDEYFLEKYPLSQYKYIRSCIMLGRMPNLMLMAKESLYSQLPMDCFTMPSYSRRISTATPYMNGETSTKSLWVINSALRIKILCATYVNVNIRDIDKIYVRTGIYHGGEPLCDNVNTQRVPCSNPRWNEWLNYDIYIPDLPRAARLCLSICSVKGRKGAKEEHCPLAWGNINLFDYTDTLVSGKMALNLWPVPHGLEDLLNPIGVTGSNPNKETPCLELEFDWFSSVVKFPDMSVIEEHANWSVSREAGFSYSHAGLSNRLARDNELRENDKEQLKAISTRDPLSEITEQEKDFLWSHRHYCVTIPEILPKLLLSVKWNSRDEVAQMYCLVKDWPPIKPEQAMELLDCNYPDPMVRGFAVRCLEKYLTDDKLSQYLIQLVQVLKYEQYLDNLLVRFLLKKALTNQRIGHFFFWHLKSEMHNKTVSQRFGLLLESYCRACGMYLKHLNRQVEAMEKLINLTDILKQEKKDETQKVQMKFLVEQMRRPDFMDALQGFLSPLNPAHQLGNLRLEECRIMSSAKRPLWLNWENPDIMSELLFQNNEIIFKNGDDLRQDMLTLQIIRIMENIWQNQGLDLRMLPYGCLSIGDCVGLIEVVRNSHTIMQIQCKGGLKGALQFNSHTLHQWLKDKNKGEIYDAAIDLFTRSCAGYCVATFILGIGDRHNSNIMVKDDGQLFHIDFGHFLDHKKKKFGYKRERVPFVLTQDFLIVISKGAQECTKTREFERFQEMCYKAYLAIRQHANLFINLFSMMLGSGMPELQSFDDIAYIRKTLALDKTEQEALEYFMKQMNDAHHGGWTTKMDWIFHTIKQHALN
observation type: IC50 (nM)

>>> result_number("CCOc1ncc(-c2ccc3ncnc(N4CCN(C(=O)/C=C/C(C)=O)CC4)c3c2)cc1NS(=O)(=O)c1ccccc1F")
9.5
>>> result_number("COc1ncc(-c2ccc3ncnc(N4CCN(C(=O)/C=C/C(C)=O)CC4)c3c2)cc1NS(=O)(=O)c1ncc(Cl)s1")
1.2
>>> result_number("COc1ncc(-c2ccc3ncnc(N4CC5CCC(C4)N5C(=O)/C=C/C(C)=O)c3c2)cc1NS(=O)(=O)c1ccc(F)cc1Cl")
6
>>> result_number("COc1ncc(-c2ccc3ncnc(C4CCN(C(=O)/C=C/C(C)=O)C4)c3c2)cc1NS(=O)(=O)c1ccc(F)cc1F (centres unmarked)")
0.53
>>> result_number("COc1ncc(-c2ccc3ncnc(N4CCN(C(=O)/C=C/C(C)=O)CC4)c3n2)cc1NS(=O)(=O)c1c(F)cncc1F")
0.54
>>> result_number("COc1ncc(-c2ccc3ncnc(C4=CCN(C(=O)/C=C/C(C)=O)CC4)c3c2)cc1NS(=O)(=O)c1ccc(F)cc1F")
1.1
>>> result_number("COc1ncc(-c2ccc3ncnc(NC4CCN(C(=O)/C=C/C(C)=O)C4)c3c2)cc1NS(=O)(=O)c1ccc(F)cc1F (centres unmarked)")
9.2
>>> result_number("COc1ncc(-c2ccc3ncnc(C4=CCN(C(=O)/C=C/C(C)=O)CC4)c3c2)cc1NS(=O)(=O)c1c(F)cccc1Cl")
1.9
>>> result_number("CC(=O)/C=C/C(=O)N1CCN(c2ncnc3ccc(-c4cnc(C)c(NS(=O)(=O)c5ccc(F)cc5F)c4)cc23)CC1")
3.3
>>> result_number("COc1ncc(-c2ccc3ncnc(C4CCN(C(=O)/C=C/C(C)=O)CC4)c3n2)cc1NS(=O)(=O)c1ccc(F)cc1F")
4.2
>>> result_number("COc1ncc(-c2ccc3ncnc(N4CCN(C(=O)/C=C/C(C)=O)CC4)c3n2)cc1NS(=O)(=O)c1sc(C)nc1C")
0.49
>>> result_number("CC(=O)/C=C/C(=O)N1CCN(c2ncnc3ccc(-c4cnc(OC(F)F)c(NS(=O)(=O)c5ccc(F)cc5F)c4)cc23)CC1")
30.6
>>> result_number("COc1ncc(-c2ccc3ncnc(C4=CCN(C(=O)/C=C/C(C)=O)CC4)c3n2)cc1NS(=O)(=O)c1sc(C)nc1C")
5.2
>>> result_number("COc1ncc(-c2ccc3ncnc(N4CCN(C(=O)/C=C/C(C)=O)C[C@@H]4C)c3c2)cc1NS(=O)(=O)c1ccc(F)cc1Cl")
3.5
>>> result_number("C=C(F)C(=O)N1C2CCC1CN(c1ncnc3ccc(-c4cnc(OC)c(NS(=O)(=O)c5ccc(F)cc5F)c4)cc13)C2")
2.1
>>> result_number("COc1ncc(-c2ccc3ncnc(N4CCN(C(=O)/C=C/C(C)=O)CC4)c3c2)cc1NS(=O)(=O)c1sc(C)nc1C")
2
>>> result_number("C=CC(=O)N1CCN(c2ncnc3ccc(-c4cnc(OC)c(NS(=O)(=O)c5c(F)cccc5F)c4)nc23)CC1")
2.1
>>> result_number("COc1ncc(-c2ccc3ncnc(C4CCN(C(=O)/C=C/C(C)=O)CC4)c3n2)cc1NS(=O)(=O)c1c(F)cc(F)cc1F")
3.6
>>> result_number("COc1ncc(-c2ccc3ncnc(N4CCN(C(=O)/C=C/C(C)=O)CC4)c3n2)cc1NS(=O)(=O)c1cc(F)ccc1F")
0.41
>>> result_number("COc1ncc(-c2ccc3ncnc(C4CCN(C(=O)/C=C/C(C)=O)CC4)c3c2)cc1NS(=O)(=O)c1sc(C)nc1C")
2.4
>>> result_number("COc1ncc(-c2ccc3ncnc(C4=CCN(C(=O)/C=C/C(C)=O)CC4)c3c2)cc1NS(=O)(=O)c1ccccc1F")
2.3
>>> result_number("COc1ncc(-c2ccc3ncnc(N4CCN(C(=O)/C=C/C(C)=O)CC4)c3n2)cc1NS(=O)(=O)c1ccncc1F")
1.1
>>> result_number("COc1ncc(-c2ccc3ncnc(N4CC5CC(C4)N5C(=O)/C=C/C(C)=O)c3c2)cc1NS(=O)(=O)c1ccc(F)cc1F")
0.57
>>> result_number("C=C(F)C(=O)N1CC2(CCN(c3ncnc4ccc(-c5cnc(OC)c(NS(=O)(=O)c6c(F)cc(F)cc6F)c5)cc34)CC2)C1")
0.43
>>> result_number("CNC(=O)/C=C/C(=O)N1CCN(c2ncnc3ccc(-c4cnc(OC)c(NS(=O)(=O)c5ccc(F)cc5F)c4)cc23)CC1")
0.37
>>> result_number("COc1ncc(-c2ccc3ncnc(N4CCN(C(=O)/C(C#N)=C/C(C)(C)C)CC4)c3c2)cc1NS(=O)(=O)c1ccc(F)cc1F")
1.8

* * *

molecular target: PI3Kδ (Homo sapiens (Human)); test: Inhibition of PI3Kδ efficacy assay (ADP-Glo kinase assay); type: biochemical; settings: Table 1; read-out: PI3Kδ inhibitory activity (IC50)
Sequence (O00329 whole entry): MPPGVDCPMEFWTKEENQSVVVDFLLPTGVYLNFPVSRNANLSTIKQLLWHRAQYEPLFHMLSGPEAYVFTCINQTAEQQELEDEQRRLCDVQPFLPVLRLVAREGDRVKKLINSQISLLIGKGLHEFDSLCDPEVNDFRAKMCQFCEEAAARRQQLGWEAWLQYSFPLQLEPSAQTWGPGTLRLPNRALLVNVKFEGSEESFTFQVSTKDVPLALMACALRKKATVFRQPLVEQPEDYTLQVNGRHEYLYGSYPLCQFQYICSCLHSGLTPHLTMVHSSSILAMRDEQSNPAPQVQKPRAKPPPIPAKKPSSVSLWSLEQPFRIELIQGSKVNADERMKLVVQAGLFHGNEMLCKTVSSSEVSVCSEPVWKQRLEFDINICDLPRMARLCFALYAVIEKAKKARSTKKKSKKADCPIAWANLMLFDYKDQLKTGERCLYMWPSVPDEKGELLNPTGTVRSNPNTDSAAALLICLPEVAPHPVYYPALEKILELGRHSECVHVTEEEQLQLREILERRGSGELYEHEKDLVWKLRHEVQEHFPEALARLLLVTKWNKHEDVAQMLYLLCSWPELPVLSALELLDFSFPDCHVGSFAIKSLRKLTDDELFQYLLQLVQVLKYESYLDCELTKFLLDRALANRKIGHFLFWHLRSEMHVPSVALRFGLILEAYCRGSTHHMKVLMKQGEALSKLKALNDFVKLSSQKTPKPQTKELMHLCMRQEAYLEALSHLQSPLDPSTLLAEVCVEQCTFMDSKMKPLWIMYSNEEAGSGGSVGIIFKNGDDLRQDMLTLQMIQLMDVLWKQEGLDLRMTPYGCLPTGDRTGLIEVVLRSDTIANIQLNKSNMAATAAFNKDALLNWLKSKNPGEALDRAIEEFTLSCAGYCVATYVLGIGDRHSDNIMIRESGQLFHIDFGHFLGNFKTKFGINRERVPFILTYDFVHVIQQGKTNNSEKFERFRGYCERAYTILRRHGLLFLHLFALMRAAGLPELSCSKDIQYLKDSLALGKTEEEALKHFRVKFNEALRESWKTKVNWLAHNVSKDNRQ
Sequence (P27986 whole entry partner): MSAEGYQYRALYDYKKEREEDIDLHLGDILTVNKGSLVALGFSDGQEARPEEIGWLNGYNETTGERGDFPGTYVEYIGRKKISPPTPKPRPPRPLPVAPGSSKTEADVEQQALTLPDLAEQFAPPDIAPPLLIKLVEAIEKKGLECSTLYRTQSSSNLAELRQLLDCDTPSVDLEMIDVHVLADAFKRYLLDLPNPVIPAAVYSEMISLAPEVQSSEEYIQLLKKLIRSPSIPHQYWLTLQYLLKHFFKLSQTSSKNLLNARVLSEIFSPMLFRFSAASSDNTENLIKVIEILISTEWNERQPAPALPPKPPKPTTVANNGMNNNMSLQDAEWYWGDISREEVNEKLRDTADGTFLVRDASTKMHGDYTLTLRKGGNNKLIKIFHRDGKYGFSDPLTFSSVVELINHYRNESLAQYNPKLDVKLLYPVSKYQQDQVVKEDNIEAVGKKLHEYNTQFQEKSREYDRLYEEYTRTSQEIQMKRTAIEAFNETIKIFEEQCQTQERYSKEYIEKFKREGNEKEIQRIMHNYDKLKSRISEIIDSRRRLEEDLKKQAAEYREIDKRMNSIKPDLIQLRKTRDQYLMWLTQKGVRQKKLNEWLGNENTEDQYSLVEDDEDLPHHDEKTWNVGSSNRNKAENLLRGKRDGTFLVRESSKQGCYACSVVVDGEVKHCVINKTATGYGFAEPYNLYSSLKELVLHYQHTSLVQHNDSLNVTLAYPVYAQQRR
pIC50: −log10 of the molar value.
observation type: pIC50

>>> result_number("C=CC(=O)N1CCN(c2ncnc3ccc(-c4cnc(OC)c(NS(=O)(=O)c5ccc(Cl)s5)c4)cc23)CC1 [Example 37]")
7.70
>>> result_number("CCCC(=O)/C=C/C(=O)N1CCN(c2ncnc3ccc(-c4cnc(OC)c(NS(=O)(=O)c5ccc(F)cc5F)c4)cc23)CC1 [Example 17]")
7.51
>>> result_number("C=CC(=O)N1CCN(c2ncnc3ccc(-c4cnc(Cl)c(NS(=O)(=O)c5ccc(F)cc5F)c4)cc23)CC1 [Example 33]")
7.16
>>> result_number("COc1ncc(-c2nc(N3CCOCC3)nc3c(CN4CCC(C(C)(C)O)CC4)cc(F)cc23)cc1NS(C)(=O)=O [Linperlisib, reference compound]")
7.74
>>> result_number("COc1ncc(-c2ccc3ncnc(N4CCN(C(=O)/C=C/C(C)=O)CC4)c3c2)cc1NS(=O)(=O)c1ccc(Cl)s1 [Example 38]")
7.83
>>> result_number("C=CC(=O)N1CCN(c2ncnc3c2CN(c2cnc(OC)c(NS(=O)(=O)c4ccc(F)cc4F)c2)CC3)CC1 [Example 41]")
8.00
>>> result_number("CC(=O)/C=C/C(=O)N1CCN(c2ncnc3ccc(-c4cncc(NS(=O)(=O)c5ccc(F)cc5F)c4)cc23)CC1 [Example 28]")
7.30
>>> result_number("C=C(F)C(=O)N1CC2(CCN(c3ncnc4ccc(-c5cnc(OC)c(NS(=O)(=O)c6ccc(F)cc6F)c5)cc34)CC2)C1 [Example 19]")
7.24
>>> result_number("C=CC(=O)N1CCN(c2ncnc3ccc(-c4cnc(OC)c(NS(=O)(=O)C5CCCCC5)c4)cc23)CC1 [Example 25]")
6.90
>>> result_number("C=CC(=O)N1CCN(c2ncnc3ccc(-c4cncc(NS(=O)(=O)c5ccc(F)cc5F)c4)cc23)CC1 [Example 27]")
7.56
>>> result_number("C=CC(=O)N1CCN(c2nc(N)nc3ccc(-c4cnc(OC)c(NS(=O)(=O)c5ccc(F)cc5F)c4)cc23)CC1 [Example 30]")
5.74
>>> result_number("COc1ncc(-c2ccc3ncnc(N4CCN(C(=O)/C=C/n5ccnn5)CC4)c3c2)cc1NS(=O)(=O)c1ccc(F)cc1F [Example 10]")
7.78
>>> result_number("C=CC(=O)N1CCN(c2ncnc3ccc(-c4cnc(OC)c(NS(C)(=O)=O)c4)cc23)CC1 [Example 4]")
7.92
>>> result_number("C=CC(=O)N1CC2(CCN(c3ncnc4ccc(-c5cnc(OC)c(NS(=O)(=O)c6ccc(F)cc6F)c5)cc34)CC2)C1 [Example 18]")
7.90
>>> result_number("CC(=O)/C=C/C(=O)N1CCN(c2ncnc3ccc(-c4cnc(Cl)c(NS(=O)(=O)c5ccc(F)cc5F)c4)cc23)CC1 [Example 34]")
7.68
>>> result_number("C=CC(=O)N1CCN(c2ncnc3ccc(-c4cnc(OC)c(NS(=O)(=O)c5c(F)cccc5F)c4)cc23)CC1 [Example 21]")
7.24
>>> result_number("COc1ncc(-c2ccc3ncnc(N4CCN(C(=O)/C=C/C(C)=O)CC4)c3c2)cc1NS(=O)(=O)c1ccc(F)cc1F [Example 6]")
7.96
>>> result_number("C=C(F)C(=O)N1CCN(c2ncnc3ccc(-c4cnc(OC)c(NS(=O)(=O)c5ccc(F)cc5F)c4)cc23)[C@@H](C)C1 [Example 9]")
8.04
>>> result_number("COc1ncc(-c2ccc3ncnc(N4CCN(C(=O)/C=C/C(C)=O)CC4)c3c2)cc1NS(=O)(=O)C1CCCCC1 [Example 26]")
6.58
>>> result_number("COc1ncc(-c2ccc3ncnc(N4CCC5(CC4)CN(C(=O)/C=C/C(C)=O)C5)c3c2)cc1NS(=O)(=O)c1ccc(F)cc1F [Example 20]")
6.67
>>> result_number("C=CC(=O)N1CCN(c2ncnc3ccc(-c4cnc(Cl)c(NS(=O)(=O)c5ccc(Cl)s5)c4)cc23)CC1 [Example 35]")
6.93
